Molecular target: helicase domain of the Pol θ protein (Homo sapiens)
Construct: The helicase domain of the Pol θ protein was purified from insect protein expression system; made in house; host or cells: insect protein expression system
Test: Biochemical Activity Assay (ADP Glo Assay) of Pol θ inhibitor, ATPase activity
Settings: read-out: Biochemical assay IC50
IC50 reference
ASSAY ENDPOINT: IC50 (nM)

COMPOUND: COc1cnc(C(F)F)cc1-c1cc(C)ncc1C(=O)Nc1nc2cnc(N3CCC(O)CC3)nc2s1 [Example 198]
REPORTED MEASUREMENT: 4.23

COMPOUND: COc1cnc(Cl)cc1-c1cc(C)ncc1C(=O)Nc1nc2nc(F)c(-c3c(C)nnn3C)cc2s1 [Example 232]
REPORTED MEASUREMENT: 2.51

COMPOUND: COc1cnc(Cl)cc1-c1cc(C)ncc1C(=O)Nc1nc2cnc(-c3c(C)nnn3C3CC3)cc2s1 [Example 214]
REPORTED MEASUREMENT: 6.71

COMPOUND: COc1cnc(C(F)F)cc1-c1cc(N2CCN(C)C3(CC3)C2=O)ncc1C(=O)Nc1nc2cnc(-c3c(C)nnn3C)cc2s1 [Example 197]
REPORTED MEASUREMENT: 8.57

====

Target: helicase domain of the Pol θ protein (Homo sapiens, UniProt O75417)
Construct: The helicase domain of the Pol θ protein was purified from insect protein expression system; made in house; host or cells: insect protein expression system
Sequence (O75417 102-554 limits assumed): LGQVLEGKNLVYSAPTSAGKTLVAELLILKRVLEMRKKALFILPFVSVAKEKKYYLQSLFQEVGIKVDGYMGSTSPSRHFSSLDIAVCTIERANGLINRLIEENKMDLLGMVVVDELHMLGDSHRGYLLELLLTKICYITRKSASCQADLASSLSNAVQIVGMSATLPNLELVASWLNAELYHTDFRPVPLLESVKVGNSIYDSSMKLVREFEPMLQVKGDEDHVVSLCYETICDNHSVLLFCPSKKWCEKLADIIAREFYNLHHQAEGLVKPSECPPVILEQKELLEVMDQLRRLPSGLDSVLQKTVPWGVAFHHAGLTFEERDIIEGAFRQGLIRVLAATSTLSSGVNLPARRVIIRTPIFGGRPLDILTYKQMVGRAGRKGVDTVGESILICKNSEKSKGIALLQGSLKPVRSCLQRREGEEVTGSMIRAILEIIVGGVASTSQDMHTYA
Assay: Biochemical Activity Assay (ADP Glo Assay) of Pol θ inhibitor, ATPase activity
Details: ADP-Glo assay, ATPase activity of Pol θ helicase domain, ssDNA substrate; read-out: Biochemical assay IC50
IC50 reference
ASSAY ENDPOINT: IC50 (nM)

MOLECULE: COc1cnc(Cl)cc1-c1cc(C)ncc1C(=O)Nc1nc2ccc(N3CCc4ccccc4C3)nc2s1
ASSAY TARGET: helicase domain of the Pol θ protein (Homo sapiens, UniProt O75417)
ASSAY ENDPOINT: IC50
READOUT UNIT: nM
REPORTED MEASUREMENT: 163
//
MOLECULE: COc1cnc(Cl)cc1-c1cc(C)ncc1C(=O)Nc1nc2ncc(N3CCC(CO)C3)cc2s1 (stereo not shown)
ASSAY TARGET: helicase domain of the Pol θ protein (Homo sapiens, UniProt O75417)
ASSAY ENDPOINT: IC50
READOUT UNIT: nM
REPORTED MEASUREMENT: 9.89
//
MOLECULE: COc1cnc(Cl)cc1-c1cc2cncn2cc1C(=O)Nc1nc2cnc(N3CCC(O)CC3)cc2s1
ASSAY TARGET: helicase domain of the Pol θ protein (Homo sapiens, UniProt O75417)
ASSAY ENDPOINT: IC50
READOUT UNIT: nM
REPORTED MEASUREMENT: 51.9
//
MOLECULE: COc1cnc(Cl)cc1-c1cc(C)ncc1C(=O)Nc1nc2c(F)cc(N3CCC(O)CC3)cc2s1
ASSAY TARGET: helicase domain of the Pol θ protein (Homo sapiens, UniProt O75417)
ASSAY ENDPOINT: IC50
READOUT UNIT: nM
REPORTED MEASUREMENT: 2.67

====

Assay: Mouse PK assay after oral administration
Settings: male, ICR, mouse, plasma, po, 25 mg/kg
ASSAY ENDPOINT: MRT (h)

MOLECULE: COc1cnc(Cl)cc1-c1cc(C)ncc1C(=O)Nc1nc2ccc(N3CCC(O)CC3)nc2s1 [Example 46]
ASSAY ENDPOINT: MRT
READOUT UNIT: h
REPORTED MEASUREMENT: 4.13
--
MOLECULE: COc1cnc(Cl)cc1-c1cc(C)ncc1C(=O)Nc1nc2cnc(C3=CCC(O)CC3)cc2s1 (centres unmarked) [Example 11]
ASSAY ENDPOINT: MRT
READOUT UNIT: h
REPORTED MEASUREMENT: 3.15

====

Experiment: Mouse PK assay after oral administration
Settings: male, ICR, mouse, plasma, po, 25 mg/kg

COMPOUND: COc1cnc(Cl)cc1-c1cc(C)ncc1C(=O)Nc1nc2cnc(C3=CCC(O)CC3)cc2s1 (centres unmarked)
half-life / min: 131
//
COMPOUND: COc1cnc(Cl)cc1-c1cc(C)ncc1C(=O)Nc1nc2ccc(N3CCC(O)CC3)nc2s1
half-life / min: 95.4

====

Assay: Mouse PK assay after oral administration
Details: male, ICR, mouse, plasma, po, 30 mg/kg
MRT reference
ASSAY ENDPOINT: MRT (h)

COMPOUND: COc1cnc(C(F)F)cc1-c1cc(C)ncc1C(=O)Nc1nc2cnc(-c3c(C)nnn3C)cc2s1 [Example 180]
ASSAY ENDPOINT: MRT
READOUT UNIT: h
REPORTED MEASUREMENT: 2.88
//
COMPOUND: COc1cnc(Cl)cc1-c1cc(C)ncc1C(=O)Nc1nc2cnc(-c3c(C)nnn3C)c(F)c2s1 [Example 216]
ASSAY ENDPOINT: MRT
READOUT UNIT: h
REPORTED MEASUREMENT: 3.38
//
COMPOUND: COc1cnc(C(F)F)cc1-c1cc(C)ncc1C(=O)Nc1nc2cnc(-c3c(C)noc3C)cc2s1 [Example 207]
ASSAY ENDPOINT: MRT
READOUT UNIT: h
REPORTED MEASUREMENT: 5.13
//
COMPOUND: COc1cnc(Cl)cc1-c1cc(C)ncc1C(=O)Nc1nc2cnc(-c3c(C)nnn3C)cc2s1 [Example 175]
ASSAY ENDPOINT: MRT
READOUT UNIT: h
REPORTED MEASUREMENT: 4.58
//
COMPOUND: COc1cnc(Cl)c(F)c1-c1cc(C)ncc1C(=O)Nc1nc2cnc(-c3c(C)nnn3C)c(F)c2s1 [Example 217]
ASSAY ENDPOINT: MRT
READOUT UNIT: h
REPORTED MEASUREMENT: 3.95
//
COMPOUND: COc1cnc(Cl)c(F)c1-c1cc(C)ncc1C(=O)Nc1nc2cnc(-c3c(C)nnn3C)cc2s1 [Example 172]
ASSAY ENDPOINT: MRT
READOUT UNIT: h
REPORTED MEASUREMENT: 5.91

====

Experiment: cells
Conditions: Homo sapiens, DLD-1, 240 h, read-out: Cell viability assay IC50 (nM), CTG assay, CellTiter Glo, read on Day 10; cell line not given
IC50 reference

MOLECULE: COc1cnc(Cl)cc1-c1cc(C)ncc1C(=O)Nc1nc2cnc(-c3c(C)nnn3C)cc2s1
IC50, nM: 10
//
MOLECULE: COc1cnc(Cl)cc1-c1cc(C)ncc1C(=O)Nc1nc2ccc(N3CCC(C)(O)CC3)cc2s1
IC50, nM: 165
//
MOLECULE: [2H]C1(O)CC=C(c2cc3sc(NC(=O)c4cnc(C)cc4-c4cc(Cl)ncc4OC)nc3cn2)CC1 (stereo not shown)
IC50, nM: 13.1
//
MOLECULE: COc1cnc(Cl)cc1-c1cc(C)ncc1C(=O)Nc1nc2ccc(N3CCOCC3=O)nc2s1
IC50, nM: 38.8
//
MOLECULE: COc1cnc(Cl)cc1-c1cc(C)ncc1C(=O)Nc1nc2cnc(-c3c(C)nn(C)c3C(N)=O)cc2s1
IC50, nM: 17.2
//
MOLECULE: COc1cnc(Cl)cc1-c1cc(C)ncc1C(=O)Nc1nc2ncc(N3CCS(=O)(=O)CC3)cc2s1
IC50, nM: 541
//
MOLECULE: COc1cnc(Cl)cc1-c1cc(C)ncc1C(=O)Nc1nc2ncc(N3CC4(CC(O)C4)C3)nc2s1
IC50, nM: 26.1

====

IC50 reference
Assay: cells
Settings: Homo sapiens, DLD-1, 240 h, read-out: Cell viability assay IC50 (nM), CTG on Day 10; cell line not given (method: DLD1 and DLD1^-/- cells)
ASSAY ENDPOINT: IC50

COMPOUND: COc1cnc(Cl)cc1-c1cc(C)ncc1C(=O)Nc1nc2ncc(N3CC[C@H](O)[C@H](F)C3)cc2s1 [Example 100]
ASSAY ENDPOINT: IC50
REPORTED MEASUREMENT: 100 to 500 nM
//
COMPOUND: COc1cnc(Cl)cc1-c1cc(C)ncc1C(=O)Nc1nc2ncc(N3CCC(O)CC3)cc2s1 [Example 59]
ASSAY ENDPOINT: IC50
REPORTED MEASUREMENT: < 100 nM
//
COMPOUND: CNC1CCN(c2cnc3nc(NC(=O)c4cnc(C)cc4-c4cc(Cl)ncc4OC)sc3c2)CC1 [Example 73]
ASSAY ENDPOINT: IC50
REPORTED MEASUREMENT: 100 to 500 nM
//
COMPOUND: COc1cnc(Cl)cc1-c1cc(C)ncc1C(=O)Nc1nc2ncc(N3CCC4(CC(O)C4)C3)cc2s1 (stereo not shown) [Example 99]
ASSAY ENDPOINT: IC50
REPORTED MEASUREMENT: 100 to 500 nM
